System: Escherichia coli
assay-text: Antibacterial activity against Escherichia coli after 24 hrs by MTT assay
Assay type: functional
Listed compounds paired with reported MIC
Please respond with the number in µg/mL and leave the unit unwritten.

O=C(O)COc1ccc(CC(=O)c2c(OCC(=O)O)cc(OCC(=O)O)c(Cc3c(OCC(=O)O)cc(OCC(=O)O)c(C(=O)Cc4ccc(OCC(=O)O)cc4)c3O)c2O)cc1 | 25

Below: the item to evaluate.
Query (compound): "O=C(Cc1ccc(O)cc1)c1c(O)cc(O)cc1O" ; field requested: MIC 42.5

###

System: Escherichia coli
assay-text: Antibacterial activity against Escherichia coli after 24 hrs by MTT assay
Format: functional
Below is a list of entries, each paired with its recorded MIC value.
Give the value in µg/mL but do not write µg/mL after it.

Known results for compounds:
O=C(Cc1ccc(OCCBr)cc1)c1c(O)cc(OCCBr)cc1OCCBr | 36.5
O=C(Cc1ccc(OCCCBr)cc1)c1c(O)cc(OCCCBr)cc1OCCCBr | 25
COc1ccc(CC(=O)c2c(OC)cc(OC)c(Cc3c(OC)cc(OC)c(C(=O)Cc4ccc(OC)cc4)c3O)c2O)cc1 | 38.5
NC[C@H]1O[C@H](O[C@H]2[C@H](O)[C@@H](O[C@H]3O[C@H](CO)[C@@H](O)[C@H](N)[C@H]3O)[C@H](N)C[C@@H]2N)[C@H](O)[C@@H](O)[C@@H]1O | 0.45
O=C(O)COc1ccc(CC(=O)c2c(O)cc(OCC(=O)O)cc2OCC(=O)O)cc1 | 48.5

Proceed to the following item.
Given the entry "O=C(Cc1ccc(OCCCBr)cc1)c1c(OCCCBr)cc(OCCCBr)c(Cc2c(OCCCBr)cc(OCCCBr)c(C(=O)Cc3ccc(OCCCBr)cc3)c2O)c1O" , report its measured MIC. 17.5

Where do these numbers come from? They come from ChEMBL document CHEMBL1781975.
